Molecular target: human TAS2R14 (Homo sapiens, UniProt Q9NYV8)
Construct: expressed in transfected cells; host or cells: HEK293T-Gα16gust44
Sequence (Q9NYV8 1-317): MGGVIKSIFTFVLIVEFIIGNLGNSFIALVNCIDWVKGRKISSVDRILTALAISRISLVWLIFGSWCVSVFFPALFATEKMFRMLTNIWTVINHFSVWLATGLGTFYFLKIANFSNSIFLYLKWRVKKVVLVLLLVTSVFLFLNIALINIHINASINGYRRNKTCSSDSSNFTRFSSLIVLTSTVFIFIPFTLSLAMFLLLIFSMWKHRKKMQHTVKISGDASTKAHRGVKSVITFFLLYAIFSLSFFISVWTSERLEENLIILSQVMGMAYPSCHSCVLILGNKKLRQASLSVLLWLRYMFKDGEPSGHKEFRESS
Test: Calcium imaging assay (FLIPR), HEK293T-Gα16gust44 cells transfected with human TAS2R14
Format: cell-based
Details: TAS2R14 trace; Time (s) 359.578 (Taurocholic Acid 359.563, Chenodeoxycholic Acid 359.546)
Flag rule - RLU less than 50 RLU flags YES; the remaining entries get NO.

Please check: RLU for C[C@H](CCC(=O)NCC(=O)O)[C@H]1CC[C@H]2[C@@H]3[C@H](O)C[C@@H]4C[C@H](O)CC[C@]4(C)[C@H]3C[C@H](O)[C@]12C [Glycocholic Acid, glycocholic acid] , strictly under 50 RLU or not? NO

Please check: RLU for C[C@H](CCC(=O)NCCS(=O)(=O)O)[C@H]1CC[C@H]2[C@@H]3CC[C@@H]4C[C@H](O)CC[C@]4(C)[C@H]3CC[C@]12C [Taurolithocholic Acid, taurolithocholic acid] , strictly under 50 RLU or not? YES

Please check: RLU for C[C@H](CCC(=O)NCCS(=O)(=O)O)[C@H]1CC[C@H]2[C@@H]3[C@H](O)C[C@@H]4C[C@H](O)CC[C@]4(C)[C@H]3C[C@H](O)[C@]12C [Taurocholic Acid, taurocholic acid] , strictly under 50 RLU or not? YES

Please check: RLU for C[C@H](CCC(=O)O)[C@H]1CC[C@H]2[C@@H]3[C@H](O)C[C@@H]4C[C@H](O)CC[C@]4(C)[C@H]3CC[C@]12C [Chenodeoxycholic Acid, chenodeoxycholic acid] , strictly under 50 RLU or not? NO

Please check: RLU for C[C@H](CCC(=O)O)[C@H]1CC[C@H]2[C@@H]3[C@H](O)C[C@@H]4C[C@H](O)CC[C@]4(C)[C@H]3C[C@H](O)[C@]12C [Cholic Acid, cholic acid] , strictly under 50 RLU or not? YES

* * *

Target: human TAS2R14 (Homo sapiens, UniProt Q9NYV8)
Construct: expressed in transfected cells; host or cells: HEK293T-Gα16gust44
Test: Calcium imaging assay (FLIPR), HEK293T-Gα16gust44 cells transfected with human TAS2R14
Assay type: cell-based
Settings: TAS2R14 trace; Time (s) 122.797 (Chenodeoxycholic Acid 122.781)
For each entry below, report its RLU value.
Provide the reading as a plain figure in RLU.

# RLU of C[C@H](CCC(=O)NCCS(=O)(=O)O)[C@H]1CC[C@H]2[C@@H]3[C@H](O)C[C@@H]4C[C@H](O)CC[C@]4(C)[C@H]3C[C@H](O)[C@]12C = 1039.5

# RLU of C[C@H](CCC(=O)O)[C@H]1CC[C@H]2[C@@H]3[C@H](O)C[C@@H]4C[C@H](O)CC[C@]4(C)[C@H]3C[C@H](O)[C@]12C = 1269.8

# RLU of C[C@H](CCC(=O)NCC(=O)O)[C@H]1CC[C@H]2[C@@H]3[C@H](O)C[C@@H]4C[C@H](O)CC[C@]4(C)[C@H]3C[C@H](O)[C@]12C = 945.812

# RLU of C[C@H](CCC(=O)O)[C@H]1CC[C@H]2[C@@H]3[C@H](O)C[C@@H]4C[C@H](O)CC[C@]4(C)[C@H]3CC[C@]12C = 506.351

# RLU of C[C@H](CCC(=O)NCCS(=O)(=O)O)[C@H]1CC[C@H]2[C@@H]3CC[C@@H]4C[C@H](O)CC[C@]4(C)[C@H]3CC[C@]12C = 394.755
